Target Or System: TNFα / TNFα receptor (TNFα R1/Fc) (Homo sapiens)
Construct: purchased R&D Systems
Assay Details: Inhibition of binding of TNFα to the TNFα receptor (plate ELISA competition)
Condition Notes: Table 2; read-out: Activity (IC50, inhibition of TNFα binding to TNFα R1/Fc)
pIC50: −log10 of the molar value.
Measured Endpoint: pIC50

// worked examples, pIC50 included
O=C(O)[C@H](Cc1ccccc1)NC(=O)[C@@H]1Cc2ccc(cc2)NC(=O)[C@H](O)[C@@H](O)C(=O)N[C@H](Cc2cccs2)C(=O)N[C@@H](Cc2ccc(-c3ccc(Cl)cc3)cc2)C(=O)N[C@H](Cc2ccccc2)C(=O)N1 :: 4.52 to 5.00
O=C(O)[C@@H]1Cc2ccc(cc2)NC(=O)[C@H](O)[C@@H](O)C(=O)N[C@H](Cc2ccc(C(F)(F)F)cc2)C(=O)N[C@@H](Cc2ccc(-c3ccccc3)cc2)C(=O)N[C@H](Cc2ccccc2)C(=O)N1 :: < 4.00
O=C1COc2ccc(cc2)C[C@@H](C(=O)O)NC(=O)[C@H](CCc2ccccc2)NC(=O)[C@@H](Cc2ccc(-c3ccccn3)cc2)NC(=O)[C@H](Cc2cccnc2)N1 :: < 4.00

Return reported pIC50; argument: `O=C(O)[C@@H]1Cc2ccc(cc2)NC(=O)[C@H](O)[C@@H](O)C(=O)N[C@H](c2ccccc2)C(=O)N[C@@H](Cc2ccc(-c3ccccc3)cc2)C(=O)N[C@H](Cc2ccccc2)C(=O)N1`
< 4.00

* * *

Target Or System: TNFα / TNFα receptor (TNFα R1/Fc) (Homo sapiens, UniProt P01375)
Construct: purchased R&D Systems
Sequence (P01375 77-233 limits assumed, species assumed): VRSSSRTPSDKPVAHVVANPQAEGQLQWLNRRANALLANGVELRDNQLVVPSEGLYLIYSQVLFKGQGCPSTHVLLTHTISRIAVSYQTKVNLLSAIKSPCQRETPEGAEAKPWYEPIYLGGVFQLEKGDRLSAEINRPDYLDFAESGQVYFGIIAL
Assay Details: Inhibition of binding of TNFα to the TNFα receptor (plate ELISA competition)
Condition Notes: Table 2; read-out: Activity (IC50, inhibition of TNFα binding to TNFα R1/Fc)
Numbered stars: 1 amine (or outer) side, 2 acyl side, 3 side chain; on linkers, the order of the positions; unused ones are H or OH. Bridge positions count the residues as written; N and C are the ends. Square brackets hold non-standard residues; d marks the D form. Peptide text beside a SMILES is read from it. Bip = N[C@@H](Cc1ccc(-c2ccccc2)cc1)C(=O)O; Phe(4-NH2) = Nc1ccc(C[C@H](N)C(=O)O)cc1; d(hPhe) = N[C@H](CCc1ccccc1)C(=O)O; Suc = O=C(CCC(=O)[*:2])[*:1]
Measured Endpoint: IC50

CC(=O)Nc1ccc(C[C@H](NC(=O)[C@@H]2Cc3ccc(cc3)NC(=O)CCC(=O)N[C@H](CCc3ccccc3)C(=O)N[C@@H](Cc3ccc(-c4ccccc4)cc3)C(=O)N[C@H](Cc3ccccc3)C(=O)N2)C(=O)O)cc1 [Compound 528] ([d(hPhe)][Bip][dF][Phe(4-NH2)][Phe(4-NH2)](Ac)-OH; linker N-4 via Suc) :: < 10 µM
C[C@@H](NC(=O)[C@@H]1Cc2ccc(cc2)OCC(=O)N[C@H](Cc2cccs2)C(=O)N[C@@H](Cc2ccc(-c3ccccc3)cc2)C(=O)N[C@H](CCc2ccccc2)C(=O)N1)C(=O)O :: < 10 µM
O=C(O)CCNC(=O)[C@@H]1Cc2ccc(cc2)OCC(=O)N[C@@H](Cc2ccc(-c3ccncc3)cc2)C(=O)N[C@H](Cc2ccc(-c3ccccc3)cc2)C(=O)N[C@@H](CCc2ccccc2)C(=O)N1 :: < 10 µM

Return reported IC50; argument: `O=C(O)CCCNC(=O)[C@@H]1Cc2ccc(cc2)NC(=O)[C@H](O)[C@@H](O)C(=O)N[C@H](Cc2cccs2)C(=O)N[C@@H](Cc2ccc(-c3ccccc3)cc2)C(=O)N[C@H](CCc2ccccc2)C(=O)N1`
10 to 30 µM

* * *

Target Or System: TNFα / TNFα receptor (TNFα R1/Fc) (Homo sapiens, UniProt P01375)
Construct: purchased R&D Systems
Assay Details: Inhibition of binding of TNFα to the TNFα receptor (plate ELISA competition)
Condition Notes: Table 2; read-out: Activity (IC50, inhibition of TNFα binding to TNFα R1/Fc)
Numbered stars: 1 amine (or outer) side, 2 acyl side, 3 side chain; on linkers, the order of the positions; unused ones are H or OH. Bridge positions count the residues as written; N and C are the ends. Square brackets hold non-standard residues; d marks the D form. Peptide text beside a SMILES is read from it. Tartaroyl(2R,3R-(OAc)2) = CC(=O)O[C@@H](C(=O)[*:1])[C@@H](OC(C)=O)C(=O)[*:2]; Phe(4-CF3) = N[C@@H](Cc1ccc(C(F)(F)F)cc1)C(=O)O; dPhe(4-CN) = N#Cc1ccc(C[C@@H](N)C(=O)O)cc1; Bip = N[C@@H](Cc1ccc(-c2ccccc2)cc1)C(=O)O; dPhe(4-NH2) = Nc1ccc(C[C@@H](N)C(=O)O)cc1; dPhe(4-Br) = N[C@H](Cc1ccc(Br)cc1)C(=O)O; Phe(4-NH2) = Nc1ccc(C[C@H](N)C(=O)O)cc1; d(hPhe) = N[C@H](CCc1ccccc1)C(=O)O; hPhe = N[C@@H](CCc1ccccc1)C(=O)O; 2Thi = N[C@@H](Cc1cccs1)C(=O)O; d2Thi = N[C@H](Cc1cccs1)C(=O)O; dCha = N[C@H](CC1CCCCC1)C(=O)O; Suc = O=C(CCC(=O)[*:2])[*:1]; GABA = NCCCC(=O)O
Measured Endpoint: IC50

O=C1N[C@H](Cc2ccccc2)C(=O)N[C@H](C(=O)O)Cc2ccc(cc2)NC(=O)[C@H](O)[C@@H](O)C(=O)N[C@H](Cc2cccs2)C(=O)NC1c1ccc(Br)cc1 (some centres unmarked) :: 30 to 100 µM
CC(=O)O[C@H]1C(=O)Nc2ccc(cc2)C[C@H](C(=O)N[C@@H](Cc2ccccc2)C(=O)O)NC(=O)[C@H](CCc2ccccc2)NC(=O)[C@@H](Cc2ccc(Br)cc2)NC(=O)[C@H](Cc2cccs2)NC(=O)[C@@H]1OC(C)=O [Compound 415] ([2Thi][dPhe(4-Br)][hPhe][dPhe(4-NH2)]F-OH; linker N-4 via Tartaroyl(2R,3R-(OAc)2)) :: > 100 µM
COC(=O)[C@H](CC(=O)O)NC(=O)[C@@H]1Cc2ccc(cc2)OCC(=O)N[C@H](Cc2cccs2)C(=O)N[C@@H](Cc2ccc(-c3ccccc3)cc2)C(=O)N[C@H](CCc2ccccc2)C(=O)N1 :: < 10 µM
N#Cc1ccc(C[C@H]2NC(=O)CCC(=O)Nc3ccc(cc3)C[C@@H](C(=O)O)NC(=O)[C@@H](Cc3ccccc3)NC(=O)[C@H](Cc3ccc(C(F)(F)F)cc3)NC2=O)cc1 [Compound 131] ([dPhe(4-CN)][Phe(4-CF3)][dF][Phe(4-NH2)]-OH; linker N-4 via Suc) :: 30 to 100 µM
O=C1CCC(=O)N[C@H](CC2CCCCC2)C(=O)N[C@@H](Cc2ccc(-c3ccccc3)cc2)C(=O)N[C@H](Cc2ccccc2)C(=O)N[C@H](C(=O)O)Cc2ccc(cc2)N1 [Compound 124] ([dCha][Bip][dF][Phe(4-NH2)]-OH; linker N-4 via Suc) :: > 100 µM

Return reported IC50; argument: `O=C1COc2ccc(cc2)C[C@@H](C(=O)O)NC(=O)[C@H](Cc2ccccc2)NC(=O)[C@H](Cc2ccc(-c3ccc(C(=O)O)cc3)cc2)NC(=O)[C@H](Cc2cccs2)N1`
> 100 µM

Return reported IC50; argument: O=C(O)CCCNC(=O)[C@@H]1Cc2ccc(cc2)NC(=O)CCC(=O)N[C@H](Cc2cccs2)C(=O)N[C@@H](Cc2ccc(-c3ccccc3)cc2)C(=O)N[C@H](Cc2ccccc2)C(=O)N1 [Compound 34] ([d2Thi][Bip][dF][Phe(4-NH2)][GABA]-OH; linker N-4 via Suc)
< 10 µM

Return reported IC50; argument: NCCCC[C@H](NC(=O)[C@@H]1Cc2ccc(cc2)NC(=O)CCC(=O)N[C@H](CCc2ccccc2)C(=O)N[C@@H](Cc2ccc(-c3ccccc3)cc2)C(=O)N[C@H](Cc2ccccc2)C(=O)N1)C(=O)O [Compound 295] ([d(hPhe)][Bip][dF][Phe(4-NH2)]K-OH; linker N-4 via Suc)
10 to 30 µM

* * *

Target Or System: TNFα / TNFα receptor (TNFα R1/Fc) (Homo sapiens, UniProt P01375)
Construct: purchased R&D Systems
Assay Details: Inhibition of binding of TNFα to the TNFα receptor (plate ELISA competition)
Condition Notes: Table 2; read-out: Activity (IC50, inhibition of TNFα binding to TNFα R1/Fc)
Numbered stars: 1 amine (or outer) side, 2 acyl side, 3 side chain; on linkers, the order of the positions; unused ones are H or OH. Bridge positions count the residues as written; N and C are the ends. Square brackets hold non-standard residues; d marks the D form. Peptide text beside a SMILES is read from it. Tartaroyl(2R,3R-(OAc)2) = CC(=O)O[C@@H](C(=O)[*:1])[C@@H](OC(C)=O)C(=O)[*:2]; Bip = N[C@@H](Cc1ccc(-c2ccccc2)cc1)C(=O)O; dPhe(4-NH2) = Nc1ccc(C[C@@H](N)C(=O)O)cc1; Phe(4-Br) = N[C@@H](Cc1ccc(Br)cc1)C(=O)O; Phe(4-NH2) = Nc1ccc(C[C@H](N)C(=O)O)cc1; dAla(2-furyl) = N[C@H](Cc1ccco1)C(=O)O; d(hPhe) = N[C@H](CCc1ccccc1)C(=O)O; d2Thi = N[C@H](Cc1cccs1)C(=O)O; Suc = O=C(CCC(=O)[*:2])[*:1]
# key: entry, value: IC50

// worked examples, IC50 included
CC(=O)O[C@H]1C(=O)Nc2ccc(cc2)C[C@H](C(=O)O)NC(=O)[C@@H](CCc2ccccc2)NC(=O)[C@H](Cc2ccc(-c3ccccc3)cc2)NC(=O)[C@@H](Cc2cccs2)NC(=O)[C@@H]1OC(C)=O [Compound 217] ([d2Thi][Bip][d(hPhe)][dPhe(4-NH2)]-OH; linker N-4 via Tartaroyl(2R,3R-(OAc)2)) :: < 10 µM
O=C(O)[C@H](Cc1ccccc1)NC(=O)[C@@H]1Cc2ccc(cc2)NC(=O)[C@H](O)[C@@H](O)C(=O)N[C@@H](Cc2cccs2)C(=O)N[C@H](Cc2ccc(Br)cc2)C(=O)N[C@@H](CCc2ccccc2)C(=O)N1 [Compound 437] :: 10 to 30 µM
CC(=O)O[C@H]1C(=O)Nc2ccc(cc2)C[C@H](C(=O)O)NC(=O)[C@@H](Cc2ccco2)NC(=O)[C@H](Cc2ccc(Br)cc2)NC(=O)[C@@H](Cc2cccs2)NC(=O)[C@@H]1OC(C)=O [Compound 154] ([d2Thi][Phe(4-Br)][dAla(2-furyl)][dPhe(4-NH2)]-OH; linker N-4 via Tartaroyl(2R,3R-(OAc)2)) :: > 100 µM

Return reported IC50; argument: CC(=O)N[C@H]1CC(=O)Nc2ccc(cc2)C[C@@H](C(=O)O)NC(=O)[C@@H](Cc2ccccc2)NC(=O)[C@H](Cc2ccc(-c3ccccc3)cc2)NC(=O)[C@@H](Cc2cccs2)NC1=O [Compound 375] (Ac-D[d2Thi][Bip][dF][Phe(4-NH2)]-OH; lactam 1-5)
> 100 µM

Return reported IC50; argument: O=C1CCC(=O)N[C@H](Cc2cccs2)C(=O)N[C@@H](Cc2ccc(-c3ccccc3)cc2)C(=O)N[C@H](Cc2ccccc2)C(=O)N[C@H](C(=O)N[C@@H](CO)C(=O)O)Cc2ccc(cc2)N1 [Compound 22] ([d2Thi][Bip][dF][Phe(4-NH2)]S-OH; linker N-4 via Suc)
30 to 100 µM

Return reported IC50; argument: CC(=O)O[C@H]1C(=O)Nc2ccc(cc2)C[C@H](C(=O)N[C@@H](Cc2ccccc2)C(=O)O)NC(=O)[C@@H](Cc2ccccc2)NC(=O)[C@H](Cc2ccc(-c3ccccc3)cc2)NC(=O)[C@@H](Cc2cccs2)NC(=O)[C@@H]1OC(C)=O [Compound 394] ([d2Thi][Bip][dF][dPhe(4-NH2)]F-OH; linker N-4 via Tartaroyl(2R,3R-(OAc)2))
< 10 µM

Return reported IC50; argument: O=C1CCC(=O)N[C@H](Cc2cccs2)C(=O)N[C@@H](Cc2ccc(-c3ccccc3)cc2)C(=O)N[C@H](CCc2ccccc2)C(=O)Nc2ccc(cc2)C[C@@H](C(=O)O)N1 [Compound 551]
30 to 100 µM

Return reported IC50; argument: O=C1COc2ccc(cc2)C[C@@H](C(=O)O)NC(=O)[C@H](CCc2ccccc2)NC(=O)[C@@H](Cc2ccc(-c3ccccc3)cc2)NC(=O)[C@H](Cc2cccc3ccccc23)N1 [Compound 694]
< 10 µM
